Value source: patent US9169254B2

# TESTED_TARGET: human PTH1 receptor (Homo sapiens)
# ASSAY_INFO: In vitro cAMP signal activity in HKRK-B7 cells (LLC-PK1 cells overexpressing the human PTH1 receptor)
# Assay type: cell-based
# TEST_PARAMETERS: HKRK-B7 cells; compound at 1×10^−3 M; cAMP produced as percentage of that produced by hPTH(1-34) at 100 nM
With a cut-off of 80%, any cAMP production activity (%) strictly below it is called fulfilled; any cAMP production activity (%) meeting it or above is called not fulfilled.

MOLECULE	GROUP
CN(CCO)c1ccc(/C=C/S(=O)(=O)N2CCC3(CC2)N=C(C2CCCCC2)NC3=O)c(C(F)(F)F)c1	fulfilled

Please check: cAMP production activity (%) for "Cc1cc(C(=O)N2CCC(C)(O)CC2)cc(C)c1/C=C/S(=O)(=O)N1CCC2(CC1)N=C(c1ccc(C(F)(F)F)c(OC(C)(C)C(F)(F)F)c1)NC2=O" , strictly under 80% or not?
not fulfilled

Here's an entry: "Cc1cc(N2NCCC2=O)ccc1CCS(=O)(=O)N1CCC2(CC1)N=C([C@H]1CC[C@H](C)CC1)NC2=O" . Is its cAMP production activity (%) below 80%?
fulfilled

Given the entry "Cc1cc(C(=O)N2CCC(C)(O)CC2)cc(C)c1/C=C/S(=O)(=O)N1CCC2(CC1)N=C(c1cccc(C(F)(F)C(F)(F)F)c1)NC2=O" , would its reported cAMP production activity (%) be below 80%?
fulfilled

For "CC(C)(C)C1=NC2(CCN(S(=O)(=O)CCc3cccc4ccccc34)CC2)C(=O)N1" , is the recorded cAMP production activity (%) below the cut-off of 80%?
fulfilled

Consider the molecule "CCCS(=O)(=O)CCCCCC1=NC2(CCN(S(=O)(=O)/C=C/c3c(C)cc(N(C)C(N)=O)cc3C)CC2)C(=O)N1" . Is its cAMP production activity (%) strictly less than 80%?
fulfilled

Threshold test, cAMP production activity (%) < 80%: "Cc1cc(C(=O)N(C)C)ccc1CCS(=O)(=O)N1CCC2(CC1)N=C(c1cccc(COCC(F)F)c1)NC2=O"
fulfilled

Is 80% strictly greater than the molecule's reported cAMP production activity (%)? molecule: Cc1cc(N2C(=O)NC(COC(C)(C)C)C2=O)cc(C)c1/C=C/S(=O)(=O)N1CCC2(CC1)N=C([C@H]1CC[C@H](C)CC1)NC2=O (stereo partly drawn)
fulfilled

* * *

# TESTED_TARGET: human PTH1 receptor (Homo sapiens, UniProt Q03431)
# Sequence (Q03431 27-593): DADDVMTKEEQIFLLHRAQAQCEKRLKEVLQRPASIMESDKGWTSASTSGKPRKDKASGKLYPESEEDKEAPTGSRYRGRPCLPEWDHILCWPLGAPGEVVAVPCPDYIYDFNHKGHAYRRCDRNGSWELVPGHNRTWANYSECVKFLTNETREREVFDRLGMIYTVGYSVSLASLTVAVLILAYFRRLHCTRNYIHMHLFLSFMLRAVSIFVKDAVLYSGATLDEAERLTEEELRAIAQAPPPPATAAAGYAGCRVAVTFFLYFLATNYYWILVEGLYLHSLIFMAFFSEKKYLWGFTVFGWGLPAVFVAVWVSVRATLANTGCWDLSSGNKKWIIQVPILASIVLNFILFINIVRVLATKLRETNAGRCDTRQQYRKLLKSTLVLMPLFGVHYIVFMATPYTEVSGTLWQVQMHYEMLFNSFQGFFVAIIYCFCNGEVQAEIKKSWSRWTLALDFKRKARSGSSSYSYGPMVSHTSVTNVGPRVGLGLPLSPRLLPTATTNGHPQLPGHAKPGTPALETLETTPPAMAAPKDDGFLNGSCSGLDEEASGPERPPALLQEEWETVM
# ASSAY_INFO: In vitro cAMP signal activity in HKRK-B7 cells (LLC-PK1 cells overexpressing the human PTH1 receptor)
# Format: cell-based
# TEST_PARAMETERS: HKRK-B7 cells; compound at 1×10^−3 M; cAMP produced as percentage of that produced by hPTH(1-34) at 100 nM
Give T when the value for cAMP production activity (%) is at least 50%. Give F when it is less.

MOLECULE	GROUP
Cc1cc(N(C)c2ncc[nH]2)cc(C)c1/C=C/S(=O)(=O)N1CCC2(CC1)N=C(C1CCC(C)CC1)NC2=O (stereo not shown)	T
Cc1cc(C(=O)N(C)C)c(F)cc1CCS(=O)(=O)N1CCC2(CC1)N=C(c1cccc(C(F)(F)F)c1)NC2=O	T
Cc1cc(N2C(=O)NC(COC(C)(C)C)C2=O)cc(C)c1CCS(=O)(=O)N1CCC2(CC1)N=C([C@H]1CC[C@H](C)CC1)NC2=O (stereo partly shown)	F
O=C1NC(c2ccncc2)=NC12CCN(S(=O)(=O)c1cccc(Cl)c1)CC2	F

Let's switch to this molecule now.
Hello, I need to know if "COC(=O)NCCc1ccc(CCS(=O)(=O)N2CCC3(CC2)N=C(C2CCCCC2)NC3=O)cc1" has measured cAMP production activity (%) not below 50%. Thanks!
F
